# measurementTarget: KDR receptor (VEGFR2) (Homo sapiens)
# Construct: expressed in transfected cells; host or cells: heparan sulfate deficient Chinese hamster ovary cells (CHOm VEGFR2), VEGFR2 cDNA in psV-7d vector
# testProtocol: Inhibition of 125I-VEGF binding to KDR receptor on CHOm VEGFR2 cells
Square brackets hold non-standard residues; d marks the D form. Peptide text beside a SMILES is read from it.
measurementName: pIC50
For clarity, pIC50 is expressed as the negative log10 of concentration in mol/L.

CC[C@H](C)[C@@H]1NC(=O)[C@H](CCCNC(=N)N)NC(=O)[C@@H]2CCCN2C(=O)CNC(=O)[C@H](CCC(N)=O)NC(=O)[C@H](Cc2c[nH]cn2)NC(=O)[C@@H]2CCCN2C(=O)[C@H](CCCCN)NC1=O [Peptide P17] (cyclo(PRIKPHQG)) : 5.00
CC[C@H](C)[C@@H]1NC(=O)[C@H](CCCNC(=N)N)NC(=O)[C@@H]2CCCN2C(=O)[C@H](Cc2c[nH]cn2)NC(=O)[C@H](CCC(N)=O)NC(=O)CNC(=O)[C@H](CCC(N)=O)NC(=O)[C@H](Cc2c[nH]cn2)NC(=O)[C@@H]2CCCN2C(=O)[C@H](CCCCN)NC1=O [Peptide P9] (cyclo(GQHPRIKPHQ)) : 3.52

Let me know recorded pIC50 for CC[C@H](C)[C@@H]1NC(=O)[C@H](CCCNC(=N)N)NC(=O)[C@H](CCSC)NC(=O)[C@H]([C@@H](C)CC)NC(=O)[C@@H]2CCCN2C(=O)[C@@H](Cc2ccccc2)NC(=O)[C@H]([C@@H](C)CC)NC(=O)[C@H](Cc2c[nH]cn2)NC(=O)[C@H](CCC(N)=O)NC(=O)CNC(=O)[C@H](CCC(N)=O)NC(=O)[C@H](Cc2c[nH]cn2)NC(=O)[C@@H]2CCCN2C(=O)[C@H](CCCCN)NC1=O [Peptide P21] (cyclo(GQHI[dF]PIMRIKPHQ)) , thanks.
3.70

Let me know recorded pIC50 for CC[C@H](C)[C@@H]1NC(=O)[C@H](Cc2c[nH]cn2)NC(=O)[C@H](CCC(N)=O)NC(=O)CNC(=O)[C@H](CCC(N)=O)NC(=O)[C@H](Cc2c[nH]cn2)NC(=O)[C@@H]2CCCN2C(=O)[C@H](CCCCN)NC(=O)[C@H]([C@@H](C)CC)NC(=O)[C@H](CCCNC(=N)N)NC(=O)[C@H](CCSC)NC(=O)[C@H]([C@@H](C)CC)NC(=O)[C@H](CCC(N)=O)NC(=O)[C@@H]2CCCN2C(=O)[C@@H](Cc2ccccc2)NC(=O)CNC1=O [Peptide P20] (cyclo([dF]PQIMRIKPHQGQHIG)) , thanks.
5.00

Let me know recorded pIC50 for CC[C@H](C)[C@@H]1NC(=O)[C@H](Cc2c[nH]cn2)NC(=O)[C@H](CCC(N)=O)NC(=O)CNC(=O)[C@H](CCC(N)=O)NC(=O)[C@H](Cc2c[nH]cn2)NC(=O)[C@@H]2CCCN2C(=O)[C@H](CCCCN)NC(=O)[C@H]([C@@H](C)CC)NC(=O)[C@H](CCCNC(=N)N)NC(=O)[C@H](CCSC)NC(=O)[C@H]([C@@H](C)CC)NC(=O)[C@H](CCC(N)=O)NC(=O)CNC(=O)[C@H](CCC(=O)O)NC(=O)CNC1=O [Peptide P12] (cyclo(EGQIMRIKPHQGQHIG)) , thanks.
3.52

----------
# measurementTarget: KDR receptor (VEGFR2) (Homo sapiens, UniProt P35968)
# Construct: expressed in transfected cells; host or cells: heparan sulfate deficient Chinese hamster ovary cells (CHOm VEGFR2), VEGFR2 cDNA in psV-7d vector
# Sequence (P35968 20-1356, species assumed): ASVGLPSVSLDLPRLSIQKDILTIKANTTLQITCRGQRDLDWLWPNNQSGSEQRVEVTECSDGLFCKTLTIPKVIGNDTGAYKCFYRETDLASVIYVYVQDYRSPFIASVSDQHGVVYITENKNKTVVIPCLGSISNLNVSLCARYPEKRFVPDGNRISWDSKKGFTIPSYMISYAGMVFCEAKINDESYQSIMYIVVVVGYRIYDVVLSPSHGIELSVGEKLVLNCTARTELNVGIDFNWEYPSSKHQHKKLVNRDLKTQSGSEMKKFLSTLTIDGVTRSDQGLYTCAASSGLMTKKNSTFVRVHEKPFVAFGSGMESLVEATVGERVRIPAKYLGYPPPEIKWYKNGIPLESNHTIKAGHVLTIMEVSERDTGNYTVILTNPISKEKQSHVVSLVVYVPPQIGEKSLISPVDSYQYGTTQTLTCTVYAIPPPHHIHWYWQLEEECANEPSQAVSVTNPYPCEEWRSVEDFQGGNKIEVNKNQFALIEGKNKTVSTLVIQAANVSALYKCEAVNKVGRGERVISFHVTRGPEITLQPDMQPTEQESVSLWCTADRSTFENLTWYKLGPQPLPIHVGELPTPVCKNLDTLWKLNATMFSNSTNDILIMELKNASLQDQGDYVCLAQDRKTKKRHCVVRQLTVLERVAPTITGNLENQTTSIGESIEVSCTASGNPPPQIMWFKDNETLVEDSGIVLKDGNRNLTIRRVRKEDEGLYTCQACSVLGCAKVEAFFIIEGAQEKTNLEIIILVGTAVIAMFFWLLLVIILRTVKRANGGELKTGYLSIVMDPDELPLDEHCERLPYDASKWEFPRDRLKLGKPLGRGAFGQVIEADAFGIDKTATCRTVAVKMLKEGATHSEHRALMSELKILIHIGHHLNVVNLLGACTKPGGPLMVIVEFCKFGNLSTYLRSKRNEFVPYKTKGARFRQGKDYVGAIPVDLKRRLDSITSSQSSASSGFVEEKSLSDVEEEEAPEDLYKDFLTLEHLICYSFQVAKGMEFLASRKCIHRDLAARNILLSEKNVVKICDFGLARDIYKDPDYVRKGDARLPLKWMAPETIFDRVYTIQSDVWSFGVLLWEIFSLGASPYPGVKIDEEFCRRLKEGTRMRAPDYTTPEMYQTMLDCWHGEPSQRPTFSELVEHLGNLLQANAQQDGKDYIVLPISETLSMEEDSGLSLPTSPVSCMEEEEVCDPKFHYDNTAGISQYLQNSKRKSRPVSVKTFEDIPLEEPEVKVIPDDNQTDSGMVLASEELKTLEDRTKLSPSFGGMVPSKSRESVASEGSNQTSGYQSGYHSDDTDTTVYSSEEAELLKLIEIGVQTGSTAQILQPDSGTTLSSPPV
# testProtocol: Inhibition of 125I-VEGF binding to KDR receptor on CHOm VEGFR2 cells
Square brackets hold non-standard residues; d marks the D form. Peptide text beside a SMILES is read from it. * marks the point of attachment. OAll = C=CCO*
measurementName: IC50

Check out these entries, answers already filled in.
CC[C@H](C)[C@H](NC(=O)[C@H](CCCNC(=N)N)NC(=O)CN)C(=O)N[C@@H](CCCCN)C(=O)N1CCC[C@@H]1C(=O)N[C@@H](Cc1c[nH]cn1)C(=O)N[C@@H](CCC(N)=O)C(=O)NCC(=O)N[C@@H](CCC(N)=O)C(=O)N[C@@H](Cc1c[nH]cn1)C(=O)O [Peptide P6] (H-GRIK[dP]HQGQH-OH) : > 300 µM
C=CCOC(=O)[C@H](CCC(=O)O)NC(=O)CNC(=O)[C@@H](NC(=O)[C@H](Cc1c[nH]cn1)NC(=O)[C@H](CCC(N)=O)NC(=O)CNC(=O)[C@H](CCC(N)=O)NC(=O)[C@H](Cc1c[nH]cn1)NC(=O)[C@@H]1CCCN1C(=O)[C@H](CCCCN)NC(=O)[C@@H](NC(=O)[C@H](CCCNC(=N)N)NC(=O)[C@H](CCSC)NC(=O)[C@@H](NC(=O)[C@@H](N)CCC(N)=O)[C@@H](C)CC)[C@@H](C)CC)[C@@H](C)CC [Peptide P10] (H-QIMRIKPHQGQHIGE-OAll) : > 300 µM
CC[C@H](C)[C@@H]1NC(=O)[C@H](CCC(N)=O)NC(=O)[C@H](CCC(=O)O)NC(=O)[C@H](CCC(N)=O)NC(=O)[C@H](Cc2c[nH]cn2)NC(=O)[C@@H]2CCCN2C(=O)[C@H](CCCCN)NC(=O)[C@H]([C@@H](C)CC)NC(=O)[C@H](CCCNC(=N)N)NC(=O)[C@H](CCSC)NC1=O [Peptide P22, reference compound] (cyclo(EQIMRIKPHQ)) : > 300 µM

Let me know recorded IC50 for CC[C@H](C)[C@@H]1NC(=O)[C@H](Cc2c[nH]cn2)NC(=O)[C@H](CCC(N)=O)NC(=O)CNC(=O)[C@H](CCC(N)=O)NC(=O)[C@H](Cc2c[nH]cn2)NC(=O)[C@@H]2CCCN2C(=O)[C@H](CCCCN)NC(=O)[C@H]([C@@H](C)CC)NC(=O)[C@H](CCCNC(=N)N)NC(=O)[C@H](CCSC)NC(=O)[C@H]([C@@H](C)CC)NC(=O)[C@H](CCC(N)=O)NC(=O)[C@@H]2CCCN2C(=O)[C@H](CCC(=O)O)NC(=O)CNC1=O [Peptide P13] (cyclo(EPQIMRIKPHQGQHIG)) , thanks.
> 300 µM

Let me know recorded IC50 for CC[C@H](C)[C@@H]1NC(=O)[C@H](CCCNC(=N)N)NC(=O)CNC(=O)[C@H](Cc2c[nH]cn2)NC(=O)[C@H](CCC(N)=O)NC(=O)CNC(=O)[C@H](CCC(N)=O)NC(=O)[C@H](Cc2c[nH]cn2)NC(=O)[C@H]2CCCN2C(=O)[C@H](CCCCN)NC1=O [Peptide P7] (cyclo(GQHGRIK[dP]HQ)) , thanks.
> 300 µM

This collection of values is drawn from patent US7199100B2.
